Molecular target: T1, full-length human GIPR with an N-terminal FLAG tag, overexpressed on HEK-293T cells (human, UniProt P48546 22-466)
T1 sequence (looked up): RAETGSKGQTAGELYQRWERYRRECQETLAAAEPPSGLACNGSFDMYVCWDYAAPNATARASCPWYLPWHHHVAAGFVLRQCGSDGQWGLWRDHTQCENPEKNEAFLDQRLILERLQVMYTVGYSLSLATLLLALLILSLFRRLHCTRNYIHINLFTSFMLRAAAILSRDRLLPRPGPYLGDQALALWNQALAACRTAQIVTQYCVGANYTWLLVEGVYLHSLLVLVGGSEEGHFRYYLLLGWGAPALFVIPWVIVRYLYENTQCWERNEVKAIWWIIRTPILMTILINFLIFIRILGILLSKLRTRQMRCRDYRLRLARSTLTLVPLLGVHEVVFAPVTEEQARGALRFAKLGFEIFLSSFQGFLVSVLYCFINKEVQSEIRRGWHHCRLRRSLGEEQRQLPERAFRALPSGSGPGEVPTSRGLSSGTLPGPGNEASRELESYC
Assay: cell-based or functional assay
Starred links: 1 amine or outer side, 2 acyl side, 3 side chain; linkers in the order of their positions; H or OH if unused. Non-standard residues stand in square brackets, D forms with d. Groups on a side chain read outwards from the residue. No end group written: not given here. *: point of attachment. C18 diacid = O=C(O)CCCCCCCCCCCCCCCCC(=O)*; C17 diacid = O=C(O)CCCCCCCCCCCCCCCC(=O)*; γGlu = O=C(O)[C@H](CCC(=O)[*:2])N[*:1]; NMeY = CN[C@@H](Cc1ccc(O)cc1)C(=O)O; AEEA = NCCOCCOCC(=O)O; Aib = CC(C)(N)C(=O)O
Item-by-item account of Human GIPR cAMP EC50, HEK293T
endpoint: Human GIPR cAMP EC50, HEK293T (pM)

>>> result("[NMeY][Aib]EGTFISDYSIALDRIHQQNFVNWLLAQK([AEEA-AEEA-γGlu-C18 diacid])PSSGAPPPS-NH2 [Compound No. 190]")
0.5
>>> result("[NMeY][Aib]EGTFISDYSIALDR[Aib]AQ[Aib]K([AEEA-AEEA-γGlu-γGlu-C17 diacid])FVNWLLAQKG-OH [Compound No. 200]")
0.6
>>> result("[NMeY][Aib]EGTFISDYSIALDR[Aib]HQQNFVNWLLAQK([AEEA-AEEA-γGlu-C18 diacid]) [Compound No. 191]")
3.2
>>> result("[NMeY][Aib]EGTFISDYSI[Aib]LDR[Aib]AQ[Aib]K([AEEA-AEEA-C18 diacid])FVNWLLAQRG-OH [Compound No. 219]")
0.8
>>> result("[NMeY][Aib]EGTFISDYSI[Aib]LDR[Aib]AQ[Aib]K([AEEA-AEEA-γGlu-C18 diacid])FVNWLLAQRG-OH [Compound No. 208]")
0.3
>>> result("Me-Y[Aib]EGTFISDYSIALDKAAQ[Aib]K([AEEA-AEEA-γGlu-γGlu-C18 diacid])FVEWLLAQRG-OH [Compound No. 174]")
0.4
>>> result("YXEGTFISDYSIAXDKIXQADFVEWLLAQRG (N-terminus H; Aib at 2, 14; Km at 18 = Lys(2OEGgE-C18DA); C-terminus OH) [Compound No. 166]")
0.5
>>> result("[NMeY][Aib]EGTFISDYSI[Aib]LDR[Aib]HQ[Aib]K([AEEA-AEEA-γGlu-γGlu-C18 diacid])FVNWLLAQRG-OH [Compound No. 201]")
0.9
>>> result("[NMeY][dA]EGTFISDYSI[Aib]LDR[Aib]AQ[Aib]K([AEEA-AEEA-γGlu-γGlu-C18 diacid])FVNWLLAQRG-OH [Compound No. 217]")
0.6
>>> result("[NMeY][Aib]EGTFISDYSI[Aib]LDR[Aib]AA[Aib]K([AEEA-AEEA-γGlu-γGlu-C18 diacid])FVNWLLAQRG-OH [Compound No. 212]")
0.3

Data origin: patent US20230143604A1
